Test: Toxicity in amphetamine-induced ip dosed Crl:COBS-CD-1(ICR)BR mouse assessed as lethality
Assay type: organism-based
Details: in vivo
attribute measured: LD50

Entry CC(C)(C)C1(O)CCN(CC2c3ccccc3CCc3ccccc32)CC1 — recorded LD50 = 80 mg/kg

Entry CC(C)(C)C1(O)CCN(CC2c3ccccc3CCc3cc(Cl)ccc32)CC1.Cl (stereo not given) — recorded LD50 = 160 mg/kg

Entry CC(C)(C)[C@]1(O)CCN2C[C@@H](c3ccccc3)c3ccccc3[C@@H]2C1 — recorded LD50 = > 160 mg/kg

Entry CC(C)(C)C1(O)CCN(CC2c3ccccc3C=Cc3ccccc32)CC1.Cl — recorded LD50 = 39 mg/kg

Entry CC(C)(C)C1(O)CCN(CC2c3ccccc3Sc3ccccc32)CC1.Cl — recorded LD50 = > 320 mg/kg

Origin of the recorded values: ChEMBL document CHEMBL3227975
